The origin of these recorded values is the RNAGym collection of RNA variant scans (doi:10.1002/anie.201605470).

B1: Osa-1-4 twister ribozyme (parent)
chain: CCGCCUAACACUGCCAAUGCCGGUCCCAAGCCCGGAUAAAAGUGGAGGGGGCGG

# Variants of: B1
# testDetails: self-cleavage, relative activity (ratio to wild type); higher = more cleavage; co-transcriptional
Would you kindly list self-cleavage for each of these variants?
Numbers only.

C32G U12G	0.06
U12G U18A	0.39
C11A G23A	0.07
A17U U12C	0.58
A38C G47C	0.08
G44U G45U	0.08
G30A G35A	0.05
C15G G19C	0.74
A39U C20U	0.96
C15U G13C	0.02

Batch request: self-cleavage for each of the following variants.
1. A17U G22C
2. C11U C20G
3. C11U G42U

# output
[0.11, 0.09, 0.47]
